The origin of these recorded values is paper PMC9482650.

Reported pKd values for a set of binders
molecular target: GORASP2, Q9H8Y8; assay: holdup assay; parameters: key: below the threshold = too weak to quantify, mostly under pKd 3.1 to 4; details: plain residues with an end cap or a label only (N-terminal biotin on a linker: ttds)

binder | pKd
LCALPKVTTV [AGMAT, Q9BSE5] | 5.18

So, RTRQRNETQV [HPV51-E6, P26554] ? Its pKd was 4.65
